# test-system: EGFR(D770_N771insSVD) expressing Ba/F3 stable cell line (Homo sapiens, UniProt P00533, DUP768-770, cells depend on it)
# Sequence (P00533 with tags, fused parts or gaps DUP768-770): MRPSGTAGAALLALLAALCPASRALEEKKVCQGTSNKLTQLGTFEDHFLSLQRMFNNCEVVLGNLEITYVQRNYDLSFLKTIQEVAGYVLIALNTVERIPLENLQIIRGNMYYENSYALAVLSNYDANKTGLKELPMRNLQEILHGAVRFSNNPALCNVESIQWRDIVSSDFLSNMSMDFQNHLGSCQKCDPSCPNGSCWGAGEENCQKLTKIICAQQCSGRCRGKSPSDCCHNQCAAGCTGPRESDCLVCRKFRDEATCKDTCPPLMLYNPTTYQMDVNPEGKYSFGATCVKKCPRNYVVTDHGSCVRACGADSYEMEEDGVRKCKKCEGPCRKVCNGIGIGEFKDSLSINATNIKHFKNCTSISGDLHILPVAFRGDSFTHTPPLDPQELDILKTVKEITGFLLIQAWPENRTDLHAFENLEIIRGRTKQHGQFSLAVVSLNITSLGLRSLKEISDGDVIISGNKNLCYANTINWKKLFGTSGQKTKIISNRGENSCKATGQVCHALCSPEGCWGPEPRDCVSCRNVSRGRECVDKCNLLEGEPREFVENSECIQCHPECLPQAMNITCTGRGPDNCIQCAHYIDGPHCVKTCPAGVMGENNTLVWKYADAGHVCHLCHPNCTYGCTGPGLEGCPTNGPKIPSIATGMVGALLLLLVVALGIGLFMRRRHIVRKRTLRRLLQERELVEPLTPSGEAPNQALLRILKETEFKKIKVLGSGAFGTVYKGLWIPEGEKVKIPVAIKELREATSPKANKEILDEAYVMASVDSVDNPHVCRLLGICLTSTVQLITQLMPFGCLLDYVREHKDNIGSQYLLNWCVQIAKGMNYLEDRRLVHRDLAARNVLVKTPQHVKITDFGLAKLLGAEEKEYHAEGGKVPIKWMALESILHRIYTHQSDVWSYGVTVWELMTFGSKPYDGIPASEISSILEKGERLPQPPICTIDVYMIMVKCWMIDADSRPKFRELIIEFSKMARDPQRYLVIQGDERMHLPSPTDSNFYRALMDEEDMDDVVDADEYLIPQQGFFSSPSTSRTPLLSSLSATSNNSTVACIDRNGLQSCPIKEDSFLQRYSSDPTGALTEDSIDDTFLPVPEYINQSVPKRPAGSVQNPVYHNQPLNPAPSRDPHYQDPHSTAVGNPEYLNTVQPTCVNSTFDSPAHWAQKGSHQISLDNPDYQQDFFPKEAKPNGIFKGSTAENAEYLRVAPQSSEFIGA
# protocol-summary: Cellular proliferation (Alamar Blue) assay, EGFR D770_N771insSVD Ba/F3
# Assay type: cell-based
# cond: EGFR D770_N771insSVD Ba/F3, 72 hr, read-out: D770 IC50
attribute-measured: GI50 (nM)

CN(C)C/C=C/C(=O)Nc1cccc(N2C(=O)N(Cc3ccccc3)Cc3cnc(Nc4cccc5c4CCN5C)nc32)c1
806

A = CC(C)n1cc(Nc2ncc3c(n2)N(c2cccc(NC(=O)/C=C/CN(C)C)c2)C(=O)N(Cc2ccccc2)C3)cn1
B = C=CC(=O)NC1CCCC(N2C(=O)N(Cc3ccccc3)Cc3cnc(Nc4cnn(C)c4)nc32)C1 (stereo not shown)
C = C=CC(=O)Nc1cccc(N2C(=O)N(Cc3ccccc3)Cc3cnc(Nc4ccc(N5CCOCC5)nc4)nc32)c1
D = C=CC(=O)Nc1cccc(N2C(=O)N(Cc3ccccc3)Cc3cnc(Nc4cnn(C)c4)nc32)c1
Order the records by GI50, with each subsequent value no larger than the one before. Please list the labels according to the requested order.
B, A, C, D

a = CN(C)C/C=C/C(=O)Nc1cccc(N2C(=O)N(Cc3ccccc3)Cc3cnc(Nc4cn(C)nc4Cl)cc32)c1
b = C=CC(=O)Nc1cccc(N2C(=O)N(c3ccccc3)Cc3cnc(Nc4cnn(C5CCC(O)CC5)c4)nc32)c1 (stereo not shown)
// pick larger GI50 from pair: a vs b State the label of the item chosen.
a
